Each recorded value in this set is attributed to PubChem BioAssay (Tox21).

- assay-method-text: qHTS assay to identify small molecule antagonists of the estrogen receptor alpha (ER-alpha) signaling pathway using the BG1 cell line in the presence of 0.1 nM 17-beta-estradiol - cell viability counter screen (AID 1259241); further: on the % scale 0 is the no-effect control and ±100 the full control effect; nearly all actives have a fitted effect of over 40% in size
- assay-conditions: VM7Luc4E2 (BG1) viability, CellTiter-Fluor protease, 22 h, 0.1 nM estradiol agonist added; series mostly up to 92.4 µM
Results filed as inconclusive are left out. The source made the active and inactive calls. The call rests on the fitted dose curve; in most records, active means well fitted cell-killing curve with a large enough effect in the repeat runs; inconclusive means weak or mixed curves, or effect the other way; inactive means flat fitted curve, though single readings scatter.
assay-endpoint: activity change, negative = cytotoxicity

• CCN1CCN(c2cc(-c3ccc(F)cc3)c3c(n2)CCCCCC3)CC1 = 4.69% [at 19 µM] (inactive)

Quick one: activity change, negative = cytotoxicity for CCCCCCCCCCCCCCCCCO ? -2.67% [at 19 µM] (inactive)

Which activity change, negative = cytotoxicity is reported for this molecule? C=C/C=C/C=C/CCCCC -4.24% [at 19 µM] (inactive)

May I ask what activity change, negative = cytotoxicity has been recorded for COc1cc(C(C)C)c2c(c1)S(=O)(=O)N(COc1cc(=O)n3cccc(OCCN4CCCCC4)c3n1)C2=O ? -4.33% [at 19 µM] (inactive)

Any idea what activity change, negative = cytotoxicity was measured for C=CC(=C)CC/C=C(\C)CCC=C(C)C ? 2.52% [at 19 µM] (inactive)

* * *

- assay-method-text: qHTS assay to test for compound auto fluorescence at 590 nm (red) in HepG2 cells (AID 720674); further: on the % scale 0 is the no-effect control and ±100 the full control effect
- assay-conditions: HepG2 autofluorescence, red 540/590 nm, 1 h; series mostly up to 91.3 µM
Calls of active or inactive are those of the source. Calls come from the whole dose curve; as a rule, active = well fitted curve in the direction sought with a large enough effect in the repeat runs; inconclusive = weak or mixed curves; inactive = flat fitted curve, though single readings scatter.
assay-endpoint: fluorescence, relative to Rose Bengal

• CN1[C@@H]2CC[C@@H]1CC(OC(=O)C(CO)c1ccccc1)C2 (stereo not given in full) = inactive
• Oc1ccc(-c2ccccc2)c(Cl)c1 = inactive
• CCN(CC)CCSC(=O)C(c1ccccc1)c1ccccc1 = inactive
• N#CSCSc1nc2ccccc2s1 = inactive
• Oc1ccc(-c2ccc(O)cc2)cc1 = inactive
• CCCCNc1c(C(=O)OCC)c(C)nc2c1cnn2CC = inactive
• CCc1ccc(O)c(C(C)(C)C)c1 = inactive
• COc1cc(C(C)C)c2c(c1)S(=O)(=O)N(COc1cc(=O)n3cccc(OCCN4CCCCC4)c3n1)C2=O = 0.436% [at 18.6 µM] (inactive)

Which measured fluorescence, relative to Rose Bengal value corresponds to c1ccc(Sc2ccccc2)cc1 ? inactive

What fluorescence, relative to Rose Bengal value was documented for this molecule, Cc1ccc2ccc3cccc4ccc1c2c34 ? inactive

* * *

- assay-method-text: A CellTox Green Cytotoxicity Assay to monitor cytotoxicity in HEK293 cells - 32 hour (AID 1224881); further: nearly all actives have a fitted effect of over 40% in size; further: potency means the concentration at half of the fitted maximal effect
- assay-conditions: CellTox Green fluorescence; series mostly up to 76.8 µM
Records with an inconclusive call do not appear. The source made the active and inactive calls. The call rests on the fitted dose curve; in most records, active means well fitted activation curve with a large enough effect in the repeat runs; inconclusive means weak or mixed curves; inactive means flat fitted curve, though single readings scatter.
assay-endpoint: Potency

* CN(C)c1ccc(N=NS(=O)(=O)O)cc1 | inactive
* O=C1NC2CCCCN2C12CCN(CCCN1c3ccccc3CCc3ccc(Cl)cc31)CC2 (stereo not given) | 21.3 µM (active)
* CC1=CP(=O)(c2ccccc2)CC1 (stereo not given) | inactive
* CCCCCCCC/C=C\CCCCCCCC(=O)N(C)CC(=O)O | 34.7 µM (active)
* CCOC(=O)[C@@](C)(N)Cc1ccc(O)c(O)c1 | inactive

Request the reported Potency associated with Oc1ccc(-c2ccc(O)cc2)cc1 inactive

Can you look up the measured Potency of Cc1cccc(Br)c1 for me? inactive

Recorded Potency of CCCSS/C(CCO)=C(\C)N(C=O)Cc1cnc(C)nc1N , please. inactive

Given CC(C)c1ccccc1N , state its recorded Potency. inactive

# input molecule: C[n+]1c2cc(N)ccc2cc2ccc(N)cc21 (tested in a mixture with another compound) ; wanted: its Potency 23.9 µM (active)

GET /values?readout=Potency&item= CCCCCCCCCCOCC(O)CN (stereo not given) 26.8 µM (active)
